Biological target: biotinylated human DLL3 protein expressed as a human IgG1 fusion protein (human) (UniProt Q9NYJ7)
Sequence (Q9NYJ7 other isoform, or with tags, fused parts or gaps): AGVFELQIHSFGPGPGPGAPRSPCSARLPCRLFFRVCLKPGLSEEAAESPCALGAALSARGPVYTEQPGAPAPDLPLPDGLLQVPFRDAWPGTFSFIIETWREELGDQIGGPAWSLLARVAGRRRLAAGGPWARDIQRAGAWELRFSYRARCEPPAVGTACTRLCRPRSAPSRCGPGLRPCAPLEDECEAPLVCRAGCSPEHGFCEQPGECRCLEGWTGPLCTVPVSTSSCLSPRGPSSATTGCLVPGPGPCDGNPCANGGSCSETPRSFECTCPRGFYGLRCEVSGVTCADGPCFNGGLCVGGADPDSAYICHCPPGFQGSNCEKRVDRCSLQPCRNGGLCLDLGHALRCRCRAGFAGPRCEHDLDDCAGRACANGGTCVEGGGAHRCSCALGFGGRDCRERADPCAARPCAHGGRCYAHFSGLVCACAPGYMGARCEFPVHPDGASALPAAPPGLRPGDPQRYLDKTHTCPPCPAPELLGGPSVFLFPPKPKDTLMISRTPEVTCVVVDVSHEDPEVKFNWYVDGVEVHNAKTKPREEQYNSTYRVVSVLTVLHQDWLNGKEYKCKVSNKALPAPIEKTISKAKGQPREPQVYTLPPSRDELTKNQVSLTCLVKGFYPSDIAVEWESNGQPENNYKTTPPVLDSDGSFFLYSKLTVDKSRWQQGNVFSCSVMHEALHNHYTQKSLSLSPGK
Experiment: Octet BLI; biotinylated huDLL3-IgG1 fusion on streptavidin tips; single 50 nM; conditioned medium
QUANTITY_KIND: Kd (nM)
The figure you give is taken to be in nM; do not add the unit.

# annotated cases, reported Kd shown
INSERT INTO assay_data (binder, quantity_kind, val) VALUES
  ('anti-DLL3 trispecific protein 4D04 (protein, part only; not given: anti-CD3 fragment and anti-albumin sdAb, part only) chain, part: EVQLVESGGGLVQPGGSLTLSCAASGSSVSFLSIAWYRQAPGKKRELVAGISKDGSTDYIDSVKGRFTISRDNAKNSVYLQMNSLRAEDTAVYYCYAYRWTTRMTYWGQGTLVTVSSGGGGSGGGSGGGGSGGGSHHHHHH', 'Kd', 8.6),
  ('anti-DLL3 trispecific protein 1A04 (protein, part only; not given: anti-CD3 fragment and anti-albumin sdAb, part only) chain, part: EVQLVESGGGLVQPGGSLTLSCVASGSTSSINAMGWYRRAPGKQRELVAGISSDGSKVYEDSVKGRFTISRDNAKNSVYLQMNSLRAEDTAVYYCYYFRTVSGSSMRYWGQGTLVTVSSGGGGSGGGSGGGGSGGGSHHHHHH', 'Kd', 7.8),
  ('anti-DLL3 trispecific protein 1A03 (protein, part only; not given: CD3 fragment and albumin sdAb, part only) chain, part: EVQLVESGGGLVQPGGSLTLSCVASGSTSSINAMAWYRRAPGKQRELVAGISSDGSKVYADSVKGRFTISRDNAKNSVYLQMNSLRAEDTAVYYCYYFRTVSGSSSRYWGQGTLVTVSSGGGGSGGGSGGGGSGGGSHHHHHH', 'Kd', 6.3);

q: Find the recorded Kd belonging to anti-DLL3 trispecific protein 4G01 (protein, part only; not given: CD3 binder and albumin binder, part only) chain, part: EVQLVESGGGLVQPGGSLTLSCAASGSSVRFLSMAWYRQAPGKKRELVAGISADGSTVYIDSVKGRFTISRDNAKNSVYLQMNSLRAEDTAVYYCYAYRWPTRYTYWGQGTLVTVSSGGGGSGGGSGGGGSGGGSHHHHHH and report it.
a: 3.6
